Value source: patent EP4631972A1

# Study System: T1, IL-2Rαβγ triple receptor (UniProt P01589 22-272; P14784 27-551; P31785 23-369)
# T1 sequence (looked up) 1: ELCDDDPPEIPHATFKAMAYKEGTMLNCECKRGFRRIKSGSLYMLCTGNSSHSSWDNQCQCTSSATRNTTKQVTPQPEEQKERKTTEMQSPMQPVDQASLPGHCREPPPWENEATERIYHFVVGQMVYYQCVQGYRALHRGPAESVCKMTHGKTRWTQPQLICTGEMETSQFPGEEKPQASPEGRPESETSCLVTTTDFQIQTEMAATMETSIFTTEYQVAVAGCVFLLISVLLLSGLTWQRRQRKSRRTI
# T1 sequence (looked up) 2: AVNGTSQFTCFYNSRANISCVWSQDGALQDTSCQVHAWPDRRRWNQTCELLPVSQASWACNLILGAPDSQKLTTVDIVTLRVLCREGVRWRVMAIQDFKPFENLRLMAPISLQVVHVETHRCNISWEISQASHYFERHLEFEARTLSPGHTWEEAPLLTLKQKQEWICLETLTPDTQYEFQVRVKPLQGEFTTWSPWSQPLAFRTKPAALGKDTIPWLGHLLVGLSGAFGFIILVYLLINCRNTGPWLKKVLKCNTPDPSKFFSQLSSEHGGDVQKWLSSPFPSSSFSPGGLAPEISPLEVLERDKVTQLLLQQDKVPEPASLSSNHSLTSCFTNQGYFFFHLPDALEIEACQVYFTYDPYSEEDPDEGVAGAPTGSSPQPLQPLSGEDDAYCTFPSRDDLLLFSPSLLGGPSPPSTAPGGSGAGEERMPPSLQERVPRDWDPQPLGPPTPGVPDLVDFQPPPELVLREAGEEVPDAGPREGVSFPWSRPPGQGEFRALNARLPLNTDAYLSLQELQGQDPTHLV
# T1 sequence (looked up) 3: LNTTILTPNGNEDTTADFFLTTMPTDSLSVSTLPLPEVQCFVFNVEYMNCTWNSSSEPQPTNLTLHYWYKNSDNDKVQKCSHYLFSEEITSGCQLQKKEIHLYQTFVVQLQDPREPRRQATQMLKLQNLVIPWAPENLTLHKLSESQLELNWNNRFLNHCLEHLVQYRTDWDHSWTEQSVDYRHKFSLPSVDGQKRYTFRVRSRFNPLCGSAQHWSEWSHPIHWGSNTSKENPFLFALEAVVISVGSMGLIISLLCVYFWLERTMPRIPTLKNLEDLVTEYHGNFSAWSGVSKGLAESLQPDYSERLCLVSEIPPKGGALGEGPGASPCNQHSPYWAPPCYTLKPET
# Protocol: cell-based or functional assay
Side chains are listed from the residue outwards. maleimide = maleimide group on PEG that conjugates to a cysteine thiol
Measure Name: EC50 for activation of the IL-2αβγ triple receptor (STAT5 luciferase reporter gene assay)

# count of solved cases: 3
80K-1PEG-IL2-N88R-D109C (ligand, one 80 kD PEG-maleimide conjugated to Cys 109) APTSSSTKKTQLQLEHLLLDLQMILNGINNYKNPKLTRMLTFKFYMPKKATELKHLQCLEEELKPLEEVLNLAQSKNFHLRPRDLISXINVIVLELKGSETTFMCEYAXETATIVEFLNRWITFSQSIISTLT : 0.407 nM
20K-1PEG-IL2-N88R-N77C (ligand, not fully specified) APTSSSTKKTQLQLEHLLLDLQMILNGINNYKNPKLTRMLTFKFYMPKKATELKHLQCLEEELKPLEEVLNLAQSKC([maleimide-PEG 20 kDa])FHLRPRDLISRINVIVLELKGSETTFMCEYADETATIVEFLNRWITFSQSIISTLT : 0.0705 nM
80K-1PEG-IL2-N88R-N77C (ligand) APTSSSTKKTQLQLEHLLLDLQMILNGINNYKNPKLTRMLTFKFYMPKKATELKHLQCLEEELKPLEEVLNLAQSKC(PEG 80 kDa)FHLRPRDLISRINVIVLELKGSETTFMCEYADETATIVEFLNRWITFSQSIISTLT : 0.246 nM

Consider the additional binder presented here.
**Query** State its EC50 for activation of the IL-2αβγ triple receptor (STAT5 luciferase reporter gene assay) for this binder: 20K-1PEG-IL2-N88R-D109C (ligand, not fully specified; one 20 kD PEG-maleimide conjugated to Cys 109) APTSSSTKKTQLQLEHLLLDLQMILNGINNYKNPKLTRMLTFKFYMPKKATELKHLQCLEEELKPLEEVLNLAQSKNFHLRPRDLISXINVIVLELKGSETTFMCEYAXETATIVEFLNRWITFSQSIISTLT
**Result** 0.0786 nM
